Quick list: GI50 per entry.
- System: SNB-75
- TEST_NAME: NCI tumour cell line growth inhibition, 48 h
The source made the active and inactive calls. No stated cut-off is given here; in the data, active = GI50 up to about 1.1 µM and inactive = higher.

Examples with answers:
Nc1ccc2c(c1)C(=O)N1CCC[C@H]1C(=O)N2 | > 100 µM (inactive)
CCCCCCCCCCCCNC(=O)CCC(NC(=O)c1ccc(N(C)Cc2cnc3nc(N)nc(N)c3n2)cc1)C(=O)NCCCCCCCCCCCC (configuration not stated) | 3.68 µM (inactive)
C[C@@H](N[C@H]1CCC[C@@H]1O)c1ccccc1.C[C@@H](N[C@H]1CCC[C@H]1O)c1ccccc1 | > 100 µM (inactive)
Nc1ncnc2c1ncn2C1OC(C(=O)OCCO)C(O)C1O (configuration not stated) | > 100 µM (inactive)

Input COC(=O)Cc1cc(=O)n2c3ccccc3n(C)c2c1C#N . Output GI50: 68.7 µM (inactive)

Input C[n+]1c2ccccc2c(CNC(CS)C(=O)O)c2ccccc21 (configuration not stated) . Output GI50: 21.7 µM (inactive)

Input NC(=O)C(=O)Cc1nc2ccccc2s1 . Output GI50: 68.2 µM (inactive)

---

- Tested on: UO-31
- TEST_NAME: NCI tumour cell line growth inhibition, 48 h
The source made the active and inactive calls. Rule as the data show it: active = GI50 up to about 1.1 µM and inactive = higher.
EXPERIMENTAL_READOUT: GI50

Examples with answers:
COC(=O)C(=O)C(C(=O)C(=O)Nc1cc(C)ccc1C)c1nc2ccccc2nc1O (centres undefined) | > 100 µM (inactive)
O=C1OC(C2Cc3ccc4ccccc4c3C2=O)c2ccccc21 (centres undefined) | 71.3 µM (inactive)
COc1ccc(-c2cc(O)c3cc4c(cc3n2)OCO4)c(OC)c1OC | > 100 µM (inactive)

// next entry
Input O=C(O)CCC(=O)c1ccc(Cl)cc1 . Output GI50: > 100 µM (inactive)

---

- Tested on: IGROV-1
- TEST_NAME: NCI tumour cell line growth inhibition, 48 h
The source made the active and inactive calls. Cut-off read from the data, not from the text of the source: active = GI50 up to about 1.1 µM and inactive = higher.
Returns: one label drawn from true = active, false = inactive

The examples below pair each entry with its known result.
COc1ccc(-c2oc3ccc(C)cc3c(=O)c2O)cc1 | false
C1=C(N2CCOCC2)/C(=C2\SC(=N/c3ccccc3)/C(=N\c3ccccc3)N2c2ccccc2)CC1 | false
[O-][S+](c1ccccc1)C1CC2CC3(CCC21O)OCCO3 (stereo not given) | false
C/C(=C\CO)CC[C@@H]1[C@@]2(C)CCCC(C)(C)[C@@H]2CC[C@@]1(C)O | false
CCCCCCCCCCCCNC(=O)CCC(NC(=O)c1ccc(N(C)Cc2cnc3nc(N)nc(N)c3n2)cc1)C(=O)NCCCCCCCCCCCC (stereo not given) | false
O=C(c1cccs1)N(C(=S)N1CCN(c2ccccc2)CC1)C1CCCCC1 | false
COC(=O)C1=C(C(=O)OC)C(C(=O)c2ccc(Br)cc2)N2N=C(c3ccc(Cl)cc3)C=CC12 (stereo not given) | false
CC(C)OP(=O)(OC(C)C)C(C(C)C)N(C)/C(F)=N/C(F)(F)F (stereo not given) | false
COc1ccc2oc(-c3ccncc3)cc(=O)c2c1 | false
COC1(OC)C2(Cl)C(Cl)=C(Cl)C1(Cl)C1C=CC=CC12 (stereo not given) | false

Please examine the following record next.
INPUT: Entry O=C(NCCc1ccccc1)C1C(=O)C(=O)N(CCc2ccccc2)C1=O (stereo not given) : call = ?
OUTPUT: false

---

- System: OVCAR-4
- TEST_NAME: NCI tumour cell line growth inhibition, 48 h
Calls of active or inactive are those of the source. Rule as the data show it: active = GI50 up to about 1.1 µM and inactive = higher.
EXPERIMENTAL_READOUT: GI50

Examples with answers:
COc1ccc(C(=O)C(C(=O)CC(=O)Nc2cccc(C(F)(F)F)c2)c2ccc(OC)cc2)cc1 (stereo unspecified) | > 100 µM (inactive)
CC1(C)C[C@H]2C3=CC[C@@H]4[C@@]5(C)CC[C@H](O)C(C)(C)[C@@H]5CC[C@@]4(C)[C@]3(C)C[C@@H](O)[C@@]23C[C@@H]1OC3=O | 37.2 µM (inactive)
Cc1cccc(-c2cc(O)c3cc(C)cnc3n2)c1 | 1.95 µM (inactive)
Cc1ccc(C(C)(C)C[P+](C)(c2ccccc2)c2ccccc2)cc1 | 9.18 µM (inactive)
O=C(O)c1cccc(S(=O)(=O)NN2C(=O)CSC2c2c(O)ccc3ccccc23)c1 (stereo unspecified) | 28.9 µM (inactive)
O=C(O)CC[P+](c1ccccc1)(c1ccccc1)c1ccccc1 | 46.2 µM (inactive)

Input C=CC1(C)OC2(CCN(C(=O)OCC)CC2)OC1C (stereo unspecified) . Output GI50: > 100 µM (inactive)

Input O=C(Nc1ccccc1C(=O)O)C(=O)C(C(=O)c1ccccc1-c1ccccc1)C1OC(=O)c2ccccc21 (stereo unspecified) . Output GI50: 35 µM (inactive)

Input CC1(C)C2CCC13CS(=O)(=O)N1O[C@]13C(=O)O2 (stereo partly specified) . Output GI50: > 100 µM (inactive)

Input OCc1cc2c(ccc3sc4ccc5sc6ccc7ncccc7c6c5c4c32)s1 . Output GI50: 25.2 µM (inactive)

Input COC(=O)c1cc(C)ccc1/C=C1\Cc2cc(C)c(C)cc2C1=O . Output GI50: > 100 µM (inactive)

Input C=C1C(=O)OC2/C=C(\C)C(O)CC(O)C(C)(O)CC(OC(=O)/C(C)=C/C)C12 (stereo unspecified) . Output GI50: 45.2 µM (inactive)

Input CN1CCN(CN2C(=O)C3C4C=CC(C3C2=O)C2C3C(=O)N(CN5CCN(C)CC5)C(=O)C3C42)CC1 (stereo unspecified) . Output GI50: 24.5 µM (inactive)

Input COc1ccccc1-c1c(C#N)c(N)[nH]c(=S)c1C#N . Output GI50: 57.8 µM (inactive)

Input OCC(O)COc1ccc(F)cc1 (stereo unspecified) . Output GI50: > 100 µM (inactive)

Input Nc1ncnc2c1ncn2C1OC(CSCC(F)(F)F)C(O)C1O (stereo unspecified) . Output GI50: > 100 µM (inactive)

Input C=C1CCc2ccccc2C1=O . Output GI50: > 100 µM (inactive)

Input Nc1ncnc2c1ncn2C1OC(COC2C(CO)OC(OC(C(=O)O)C(O)C(OP(=O)(O)O)C(O)C(=O)O)C(O)C2O)C(O)C1O (stereo unspecified) . Output GI50: > 100 µM (inactive)

Input O=C(c1cccs1)N(C(=S)N1CCN(c2ccccc2)CC1)C1CCCCC1 . Output GI50: > 100 µM (inactive)

Input Brc1cccc(Nc2nc(-c3cccs3)nc3ccc(Br)cc23)c1 . Output GI50: 27.8 µM (inactive)

---

- System: HL-60
- TEST_NAME: NCI tumour cell line growth inhibition, 48 h
The source made the active and inactive calls. No stated cut-off is given here; in the data, active = GI50 up to about 1.1 µM and inactive = higher.
Returns: one label drawn from active, inactive

The examples below pair each entry with its known result.
N#CC(C(=O)CCCC(=O)Nc1ccc(Cl)cc1Cl)c1ccc(Cl)cc1 (stereo not given) | inactive
OCCc1cnco1 | inactive
NNC(=O)CSc1nc2ccc(I)cc2c(=O)n1Cc1ccccc1 | inactive
[N-]=[N+]=Nc1ccc2c(c1)Sc1ccccc1N2CCCCN1CCN(Cc2ccc(C(=O)c3ccccc3)cc2)CC1 | inactive
CC(=O)Oc1c(C)cc(-c2cc(C)c(OC(C)=O)c(C)c2)cc1C | inactive

INPUT: Entry CC(C)NC(=O)OCc1c(COC(=O)NC(C)C)c(-c2cc[n+](COC(=O)C3CC3)cc2)n2c1CCC2 : call = ?
OUTPUT: inactive

---

- System: RXF 393
- TEST_NAME: NCI tumour cell line growth inhibition, 48 h
Active and inactive are the calls of the source. No stated cut-off is given here; in the data, active = GI50 up to about 1.1 µM and inactive = higher.
Returns: one label drawn from true (1) (active), false (0) (inactive)

The examples below pair each entry with its known result.
COc1ccc2c(c1)c1c(C)c3cnccc3c(C)c1n2CCCN | true (1)
CN(C)CCNc1ccc(NCCN(C)C)c2c1C(=O)c1ncsc1C2=O | false (0)

INPUT: Entry COc1ccc2c(c1)CC[C@@H]1[C@@H]2CC[C@]2(C)[C@@H](O)/C(=C/c3ccncc3)C[C@@H]12 : call = ?
OUTPUT: false (0)

INPUT: Entry C=C1CCC(OC(C)=O)C2(C)C(OC(C)=O)CC3OC3(C)C2C(OC(C)=O)C2C(C)C(=O)OC2C1Cl (centres undefined) : call = ?
OUTPUT: false (0)

INPUT: Entry O=C(CC1Sc2ccccc2NC1=O)Nc1ccc([N+](=O)[O-])cc1[N+](=O)[O-] (centres undefined) : call = ?
OUTPUT: false (0)

INPUT: Entry O=c1c2cc(Cl)cc(Cl)c2oc2nc3n(c(=O)c12)CCCS3 : call = ?
OUTPUT: false (0)

INPUT: Entry CC1=C/C(=N\NC(N)=S)C(C(O)(C(F)(F)F)C(F)(F)F)C(C)(C)C1 (centres undefined) : call = ?
OUTPUT: false (0)

INPUT: Entry NNC(=O)CSc1nc2ccc(I)cc2c(=O)n1Cc1ccccc1 : call = ?
OUTPUT: false (0)

INPUT: Entry Brc1ccc(-c2cc(-c3ccc4c(c3)OCO4)c(-c3cccs3)n2Cc2ccccc2)cc1 : call = ?
OUTPUT: false (0)
